This listing pairs binders with measured pEC50.
Target: T1, cynomolgus monkey CCR6 (cynomolgus monkey (Macaca Fascicularis))
T1 construct: whole, on cells; gene derived from a total RNA library; also called CCR6 cyno; cyno CCR6
Assay: flow cytometry on cells expressing the target, IgG1 titration (repeat of Table 2)
pEC50 (log units): -log10 of the concentration in mol/L.

Completed entries (count: 5):
Incoming: Let me know recorded pEC50 for MSM-R617 IgG1 (antibody, V domains shown, Fully human IgG1; also called MSMR617.46) VH: EVQLLESGGGLVQPGGSLRLSCAASGFTFSGYAMHWVRQAPGKGLEWVSSIGSRRGFTSYADSVKGRFTISRDNSKNTLYLQMNSLRAEDTAVYYCARSYAYQYRGLDYWGQGTLVTVSS VL: EIVLTQSPGTLSLSPGERATLSCRASQSVSSSYLAWYQQKPGQAPRLLIYGASSRATGIPDRFSGSGSGTDFTLTISRLEPEDFAVYYCQQRSSVTFGQGTKVEIKR , thanks.
Outgoing: 8.72

Incoming: Answer with reported pEC50 of MSM-R614 IgG1 (antibody, V domains shown, Fully human IgG1) VH: EVQLLESGGGLVQPGGSLRLSCPASGFTFTRSAMSWVRQAPGKGLEWVSYINSSGGGTYYADSVKGRFTISRDNSKNTLYLQMNSLRAEDTAVYYCARARFIWGFDYWGQGTLVTVSS VL: EIVLTQSPGTLSLSPGERATLSCRASQSVSSSYLAWYQQKPGQAPRLLIYGASSRATGIPDRFSGSGSGTDFTLTISRLEPEDFAVYYCQQWYWAPVTFGQGTKVEIKR
Outgoing: 8.52

Incoming: Assign pEC50 to the following record: MSM-R615 IgG1 (antibody, V domains shown, Fully human IgG1) VH: EVQLLESGGGLVQPGGSLRLSCAASGFTFSSYYMHWVRQTPGKGLEWVSIISPWSSSTYYADSVKGRFTISRDNSKNTLYLQMNSLRAEDTAVYYCARSSYSWGESYKRAIDYWGQGTLVTVSS VL: EIVLTQSPGTLSLSHGERATLSCRASQSVSSSYLAWYQQKPGQAPRLLIYGASSRATGIPDRFSGSGSGTDFTLTISRLEPEDFAVYYCQQSYYSPVTFGQGTKVEIKR
Outgoing: 8.60

Incoming: Please indicate pEC50 recorded for MSM-R609 IgG1 (antibody, V domains shown, Fully human IgG1) VH: EVQLLESGGGLVQPGGSLRLSCAASGFTFTASYMSWVRQAPGKGLEWVSNISPKYGNTYYADSVKGRFTISRDNSKNTLYLQMNSLRAEDTAVYYCARSIRSAKYSYYGIDYWGQGTLVTVSS VL: EIVLTQSPGTLSLSPGERATLSCRASQSVSSSYLAWYQQKPGQAPRLLIYGASSRATGIPDRFSGSGSGTDFTLTISRLEPEDFAVYYCQQSASAPVTFGQGTKVEIKR
Outgoing: 8.80

Incoming: Query pEC50 for MSM-R607 IgG1 (antibody, V domains shown, Fully human IgG1) VH: EVQLLESGGGLVQPGGSLRLSCAASGFTFSSYYMHWVRQAPGKGLEWVSLIAPANSDTYYADSVKGRFTISRDNSKNTLYLQMNSLRAEDTAVYYCARSSYTRHSSKRGMDYWGQGTLVTVSS VL: EIVLTQSPGTLSLSPGERATLSCRASQSVSSSYLAWYQQKPGQAPRLLIYGASSRATGIPDRFSGSGSGTDFTLTISRLEPEDFAVYYCQQAAYSPITFGQGTKVEIKR
Outgoing: 8.70

Query binder follows.
Incoming: Could you please provide reported pEC50 for MSM-R604 IgG1 (antibody, V domains shown, Fully human IgG1) VH: EVQLLESGGGLVQPGGSLRLSCAASGFTFTNYSMHWVRQAPGKGLEWVSLISPYSSSTYYADSMKGRFTISRDNSKNTLYLQMNSLRAEDTAVYYCARGRYYGAYSYPGFDYWGQGTLVTVSS VL: EIVLTQSPGTLSLSPGERATLSCRASQSVSSSYLAWYQQKPGQAPRLLIYGASSRATGIPDRFSGSGSGTDFTLTISRLEPEDFAVYYCQQSAKNPLTFGQGTKVEIKR ? Thanks!
Outgoing: 8.82
